- Method description: Pharmacokinetic evaluation in mice, IV and PO
- Format: in vivo, Balb/c female mice
- Measurement setup: IV(1 mg/kg), mouse plasma
Experimental endpoint: Tlast (h)
One number for each entry, in h.

Consider the reported Tlast for these compounds:
>>> print(df.to_string())
                                   compound  unit_of_measurement  observed
0  COc1ccc(C(O)c2cc(-c3cnnc4c(F)c(N5CCOCC5)cc(F)c34)c(F)cc2Cl)nn1 (single isomer, unassigned)                    h      8.00
1  COc1ccc([C@@H](O)c2cc(-c3nncc4cc(N5CCOCC5)ccc34)c(F)cc2Cl)nn1 [Embodiment M3814, reference compound]                    h      6.00
2  COc1ccc(C(O)c2cc(-c3cnnc4cc(N5CCOCC5)ccc34)c(F)cc2Cl)nn1 (stereo not shown)                    h      8.00

Now for the compound whose Tlast we want.
Q) For COc1ccc(C(O)c2cc(-c3ccnc4c(F)c(N5CCOCC5)cc(F)c34)c(F)cc2Cl)nn1 (single isomer, unassigned) , what is its reported Tlast?
A) 8.00

* * *

- Method description: Pharmacokinetic evaluation in mice, IV and PO
- Type: in vivo, Balb/c female mice
- Measurement setup: female, Balb/c; IV(1 mg/kg), mouse plasma
Experimental endpoint: C0 (nM)
Numbers only, in nM.

// solved cases for C0 follow
                                   compound  experimental_endpoint  unit_of_measurement  observed
0  COc1ccc(C(O)c2cc(-c3cnnc4cc(N5CCOCC5)ccc34)c(F)cc2Cl)nn1 (stereo not drawn)                     C0                   nM      1260
1  COc1ccc(C(O)c2cc(-c3ccnc4c(F)c(N5CCOCC5)cc(F)c34)c(F)cc2Cl)nn1 (single isomer, unassigned)                     C0                   nM      1380

Q) Reported C0 for COc1ccc([C@@H](O)c2cc(-c3nncc4cc(N5CCOCC5)ccc34)c(F)cc2Cl)nn1 [Embodiment M3814, reference compound] : what is it?
A) 1970

* * *

- Study system: DNA-PK (h) (Homo sapiens)
For each record, write down the corresponding IC50.

Completed entries (count: 5):
In [3]: df
Out[3]:
                                   compound  observed
0  COc1ccc(C(O)c2cc(-c3cnnc4c(F)c(N5CCOCC5)cc(F)c34)c(F)cc2Cl)nn1 (single isomer, unassigned) [Embodiment 20]    136 nM
1  COc1ccc(C(O)c2cc(-c3ccnc4c(F)c(N5CCOCC5)cc(F)c34)c(F)cc2Cl)nn1 (single isomer, unassigned) [Embodiment 21]     76 nM
2  Cc1nccnc1C(O)c1cc(-c2cnnc3c(F)c(N4CCOCC4)cc(F)c23)c(F)cc1Cl (centres unmarked)     15 nM
3  COc1ccc(C(O)c2cc(-c3cnnc4cc(N5CCOCC5)ccc34)c(F)cc2Cl)nn1 (single isomer, unassigned) [Embodiment 4]    587 nM
4  COc1ccc([C@@H](O)c2cc(-c3nncc4cc(N5CCOCC5)ccc34)c(F)cc2Cl)nn1 [Embodiment M3814, reference compound]      1 nM

// each compound listed below needs its IC50
1. COc1ccc(C(O)c2cc(-c3cc(OC)nc4cc(N5CCOCC5)ccc34)c(F)cc2Cl)nn1 (single isomer, unassigned)
2. COc1ccc(C(O)c2cc(-c3ccnc4c(F)c(N5CCOCC5)cc(F)c34)c(F)cc2Cl)nn1 (single isomer, unassigned) [Embodiment 22]
3. COc1ccc(C(O)c2cc(-c3cnnc4c(F)c(N5CCOCC5)cc(F)c34)c(F)cc2Cl)nn1 (single isomer, unassigned) [Embodiment 19]
4. COc1ccc(C(O)c2cc(-c3cnnc4cc(N5CCOCC5)ccc34)c(F)cc2Cl)nn1 (centres unmarked) [Embodiment 3]
5. COc1ccc(C(O)c2cc(-c3cc(N)nc4c(F)c(N5CCOCC5)ccc34)c(F)cc2Cl)nn1 (single isomer, unassigned)
6. COc1ccc(C(O)c2cc(-c3cc(N)nc4cc(N5CCOCC5)ccc34)c(F)cc2Cl)nn1 (single isomer, unassigned)

A)
["13100 nM", "0.8 nM", "2.1 nM", "3.5 nM", "840 nM", "657 nM"]

* * *

- Method description: Pharmacokinetic evaluation in mice, IV and PO
- Type: in vivo, Balb/c female mice
- Measurement setup: female, Balb/c; PO(10 mg/kg), mouse plasma
Experimental endpoint: Cmax (nM)
Numbers only, in nM.

Q) # query: Cmax of entry COc1ccc([C@@H](O)c2cc(-c3nncc4cc(N5CCOCC5)ccc34)c(F)cc2Cl)nn1 [Embodiment M3814, reference compound]
A) 2060

* * *

- Method description: Pharmacokinetic evaluation in mice, IV and PO
- Type: in vivo, Balb/c female mice
- Measurement setup: female, Balb/c; PO(2 mg/kg), mouse plasma; read-out: Tmax
Task for the reader: assign each of the following compounds its reported Tmax.
Answers are plain numbers, in min.

Sample answers from the record:
>>> df
                                   compound  observed
0  COc1ccc(C(O)c2cc(-c3ccnc4c(F)c(N5CCOCC5)cc(F)c34)c(F)cc2Cl)nn1 (single isomer, unassigned)        60
1  COc1ccc([C@@H](O)c2cc(-c3nncc4cc(N5CCOCC5)ccc34)c(F)cc2Cl)nn1 [Embodiment M3814, reference compound]        15

Q) Field request: Tmax | item: COc1ccc(C(O)c2cc(-c3cnnc4cc(N5CCOCC5)ccc34)c(F)cc2Cl)nn1 (stereo not drawn)
A) 30

* * *

- Method description: Pharmacokinetic evaluation in mice, IV and PO
- Format: in vivo, Balb/c female mice
- Measurement setup: female, Balb/c, plasma; PO(2 mg/kg), mouse
Could you please report measured bioavailability for the items listed next?
Answers are plain numbers, in %.

In [3]: df
Out[3]:
                                   molecule  observed
0  COc1ccc(C(O)c2cc(-c3ccnc4c(F)c(N5CCOCC5)cc(F)c34)c(F)cc2Cl)nn1 (single isomer, unassigned) [Embodiment 22]        50
1  COc1ccc(C(O)c2cc(-c3cnnc4cc(N5CCOCC5)ccc34)c(F)cc2Cl)nn1 (stereo not drawn) [Embodiment 3]      48.2

// next entry
Q) # lookup: bioavailability of COc1ccc([C@@H](O)c2cc(-c3nncc4cc(N5CCOCC5)ccc34)c(F)cc2Cl)nn1 [Embodiment M3814, reference compound]
A) 25.8

* * *

For each record, write down the corresponding IC50.
- Study system: PI3K (p110α/p85α) (Homo sapiens, UniProt P42336)
- Construct: Eurofins Pharma Discovery Service (contract assay)
- Sequence (P42336 whole entry, species assumed): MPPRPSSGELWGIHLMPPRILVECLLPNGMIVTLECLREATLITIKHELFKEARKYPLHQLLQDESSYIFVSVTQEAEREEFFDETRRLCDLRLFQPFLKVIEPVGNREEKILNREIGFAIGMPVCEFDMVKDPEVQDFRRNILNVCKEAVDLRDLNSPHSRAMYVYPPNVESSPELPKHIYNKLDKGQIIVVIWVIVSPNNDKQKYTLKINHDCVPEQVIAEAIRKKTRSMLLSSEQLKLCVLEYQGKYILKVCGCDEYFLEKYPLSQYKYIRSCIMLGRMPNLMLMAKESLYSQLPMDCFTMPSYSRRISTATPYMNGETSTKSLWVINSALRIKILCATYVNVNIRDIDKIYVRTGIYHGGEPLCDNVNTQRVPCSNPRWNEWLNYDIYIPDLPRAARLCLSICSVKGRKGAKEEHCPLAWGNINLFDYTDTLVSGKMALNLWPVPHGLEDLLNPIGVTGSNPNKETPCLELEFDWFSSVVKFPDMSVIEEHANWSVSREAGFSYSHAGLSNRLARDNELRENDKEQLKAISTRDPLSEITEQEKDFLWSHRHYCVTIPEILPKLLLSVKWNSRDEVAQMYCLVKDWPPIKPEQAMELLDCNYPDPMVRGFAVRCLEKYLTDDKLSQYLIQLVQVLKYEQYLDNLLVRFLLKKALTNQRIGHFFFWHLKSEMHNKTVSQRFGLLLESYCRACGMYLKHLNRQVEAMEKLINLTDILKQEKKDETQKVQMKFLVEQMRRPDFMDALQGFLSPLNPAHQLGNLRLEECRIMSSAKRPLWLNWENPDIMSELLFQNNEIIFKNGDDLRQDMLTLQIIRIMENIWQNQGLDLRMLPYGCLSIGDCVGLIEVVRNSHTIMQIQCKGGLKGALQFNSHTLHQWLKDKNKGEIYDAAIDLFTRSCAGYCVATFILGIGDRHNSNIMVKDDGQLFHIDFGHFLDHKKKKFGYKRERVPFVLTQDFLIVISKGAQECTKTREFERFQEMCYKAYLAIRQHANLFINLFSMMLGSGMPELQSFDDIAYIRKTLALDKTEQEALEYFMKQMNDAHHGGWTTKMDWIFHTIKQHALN
- Sequence (P27986 whole entry partner, species assumed): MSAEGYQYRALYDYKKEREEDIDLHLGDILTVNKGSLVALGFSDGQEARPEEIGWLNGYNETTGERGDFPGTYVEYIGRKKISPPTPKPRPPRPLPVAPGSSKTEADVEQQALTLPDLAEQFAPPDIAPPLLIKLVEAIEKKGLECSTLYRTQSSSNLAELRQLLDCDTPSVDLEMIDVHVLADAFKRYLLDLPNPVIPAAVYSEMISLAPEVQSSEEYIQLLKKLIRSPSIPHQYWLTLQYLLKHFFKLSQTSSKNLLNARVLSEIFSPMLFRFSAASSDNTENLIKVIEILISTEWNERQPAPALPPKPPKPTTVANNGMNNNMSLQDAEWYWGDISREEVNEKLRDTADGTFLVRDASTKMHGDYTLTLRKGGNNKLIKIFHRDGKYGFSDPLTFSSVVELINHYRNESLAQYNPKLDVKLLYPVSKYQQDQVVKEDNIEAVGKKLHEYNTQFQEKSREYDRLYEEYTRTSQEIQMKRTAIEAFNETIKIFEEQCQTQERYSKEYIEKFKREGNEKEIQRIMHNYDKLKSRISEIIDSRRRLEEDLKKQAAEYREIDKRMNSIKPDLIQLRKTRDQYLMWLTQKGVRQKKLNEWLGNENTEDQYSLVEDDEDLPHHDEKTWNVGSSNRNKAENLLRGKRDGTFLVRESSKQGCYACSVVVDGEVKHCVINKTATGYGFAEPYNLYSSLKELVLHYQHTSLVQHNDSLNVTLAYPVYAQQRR
- Method description: PI3K (p110α/p85α) kinase inhibitory activity (HTRF)
- Protocol: This experiment was tested at Eurofins Pharma Discovery Service, Reaction Biology Corp. (RBC) […] PI3K (p110α/p85α) was incubated in a determination buffer containing phosphatidylinositol 4,5-diphosphate and Mg/ATP (density as required). […] Then, the board was read in time-resolved fluorescence mode, and an HTRF signal was measured according to the formula HTRF=10000×(Em665 nm/Em620 nm).
One number for each entry, in nM.

Solved entries:
>>> print(df.to_string())
                                   compound                              study_system  observed
0  COc1ccc(C(O)c2cc(-c3cnnc4c(F)c(N5CCOCC5)cc(F)c34)c(F)cc2Cl)nn1 (single isomer, unassigned)  PI3K (p110α/p85α) (Homo sapiens, UniProt P42336)       483
1  COc1ccc(C(O)c2cc(-c3cnnc4cc(N5CCOCC5)ccc34)c(F)cc2Cl)nn1 (centres unmarked)  PI3K (p110α/p85α) (Homo sapiens, UniProt P42336)       509
2  COc1ccc(C(O)c2cc(-c3ccnc4c(F)c(N5CCOCC5)cc(F)c34)c(F)cc2Cl)nn1 (single isomer, unassigned)  PI3K (p110α/p85α) (Homo sapiens, UniProt P42336)        43
3  COc1ccc([C@@H](O)c2cc(-c3nncc4cc(N5CCOCC5)ccc34)c(F)cc2Cl)nn1 [Embodiment M3814, reference compound]  PI3K (p110α/p85α) (Homo sapiens, UniProt P42336)        42

Turning to the following compound.
Q) // query IC50 value for entry COc1ccc(C(O)c2cc(-c3ccnc4cc(N5CCOCC5)ccc34)c(F)cc2Cl)nn1 (single isomer, unassigned)
A) 39

* * *

- Study system: PI3K (p110σ/p85α) (Homo sapiens)
- Construct: Eurofins Pharma Discovery Service (contract assay)
- Sequence (O00329 whole entry): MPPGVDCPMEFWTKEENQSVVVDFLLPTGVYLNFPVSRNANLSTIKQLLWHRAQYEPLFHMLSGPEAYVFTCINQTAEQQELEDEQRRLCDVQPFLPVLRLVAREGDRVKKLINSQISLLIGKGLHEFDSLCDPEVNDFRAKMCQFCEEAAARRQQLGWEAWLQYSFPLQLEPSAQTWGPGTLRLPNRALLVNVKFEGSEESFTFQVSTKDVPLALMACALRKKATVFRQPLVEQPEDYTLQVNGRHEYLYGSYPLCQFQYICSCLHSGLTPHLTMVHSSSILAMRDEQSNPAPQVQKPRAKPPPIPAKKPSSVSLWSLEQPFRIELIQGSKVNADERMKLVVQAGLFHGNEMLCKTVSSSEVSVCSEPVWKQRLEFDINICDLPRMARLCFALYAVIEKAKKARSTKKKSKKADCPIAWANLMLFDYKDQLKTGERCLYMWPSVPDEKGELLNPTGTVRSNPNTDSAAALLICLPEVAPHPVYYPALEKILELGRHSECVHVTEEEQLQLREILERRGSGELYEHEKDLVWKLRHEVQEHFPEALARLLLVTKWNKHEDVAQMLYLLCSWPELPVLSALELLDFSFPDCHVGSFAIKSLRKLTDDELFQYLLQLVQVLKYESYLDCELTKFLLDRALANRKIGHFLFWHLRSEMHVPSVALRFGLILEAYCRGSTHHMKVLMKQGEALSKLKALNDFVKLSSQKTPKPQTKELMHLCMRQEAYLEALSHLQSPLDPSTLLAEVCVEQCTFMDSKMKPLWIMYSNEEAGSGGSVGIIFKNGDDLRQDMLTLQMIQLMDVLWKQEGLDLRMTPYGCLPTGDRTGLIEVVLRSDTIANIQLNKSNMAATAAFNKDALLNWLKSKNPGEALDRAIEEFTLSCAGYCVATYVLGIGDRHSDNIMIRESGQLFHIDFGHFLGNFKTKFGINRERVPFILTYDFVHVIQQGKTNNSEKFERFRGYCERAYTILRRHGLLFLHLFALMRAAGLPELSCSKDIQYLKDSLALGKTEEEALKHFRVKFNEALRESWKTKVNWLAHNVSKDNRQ
- Sequence (P27986 whole entry partner): as the sequence (P27986 whole entry partner, species assumed) above
- Method description: PI3K (p110σ/p85α) kinase inhibitory activity (HTRF)
Experimental endpoint: log10 IC50 (log10 of the value in nM)
Parameter value (number): base-10 log of IC50 in nM.

For orientation, consider the following solved cases.
In [3]: df
Out[3]:
                                   compound                      study_system  experimental_endpoint  observed
0  COc1ccc(C(O)c2cc(-c3cnnc4c(F)c(N5CCOCC5)cc(F)c34)c(F)cc2Cl)nn1 (single isomer, unassigned)  PI3K (p110σ/p85α) (Homo sapiens)             log10 IC50      2.78
1  COc1ccc(C(O)c2cc(-c3ccnc4cc(N5CCOCC5)ccc34)c(F)cc2Cl)nn1 (single isomer, unassigned)  PI3K (p110σ/p85α) (Homo sapiens)             log10 IC50      1.11
2  COc1ccc(C(O)c2cc(-c3cnnc4cc(N5CCOCC5)ccc34)c(F)cc2Cl)nn1 (centres unmarked)  PI3K (p110σ/p85α) (Homo sapiens)             log10 IC50      2.12
3  COc1ccc(C(O)c2cc(-c3ccnc4c(F)c(N5CCOCC5)cc(F)c34)c(F)cc2Cl)nn1 (single isomer, unassigned)  PI3K (p110σ/p85α) (Homo sapiens)             log10 IC50      1.67

Now turn to the next compound.
Q) Which log10 IC50 value belongs to COc1ccc([C@@H](O)c2cc(-c3nncc4cc(N5CCOCC5)ccc34)c(F)cc2Cl)nn1 [Embodiment M3814, reference compound] ?
A) 1.15

Attribution: patent US20220267310A1
